Below, each entry is listed with its recorded CC50 at 2 days.
Assay: Cytotoxicity in mock-infected HI-HeLa cells (antirhinoviral assay, XTT)
Format: cell-based
Conditions: human; mock-infected HI-HeLa cells; two days; XTT; read-out: CC50

Consider the reported CC50 at 2 days for these compounds:
> print(dat)
                                   compound  recorded.metric  assay.result
1  CC(=O)/C=C/[C@H](CCC(N)=O)NC(=O)[C@H](Cc1ccccc1)NC(=O)[C@H](CC(C)C)NC(=O)OCc1ccccc1 [Compound 13]   CC50 at 2 days       58.9 µM
2  CC(C)C[C@H](NC(=O)OCc1ccccc1)C(=O)N[C@@H](Cc1ccccc1)C(=O)N[C@H](/C=C/C(=O)OCC(C)(C)C)CCC(N)=O [Compound 163]   CC50 at 2 days      > 100 µM
3  CCOC(=O)/C=C/[C@H](CCC(N)=O)NC(=O)[C@H](Cc1ccccc1)NC(=O)[C@H](Cc1ccccc1)NC(=O)OCc1ccccc1 [Compound 157]   CC50 at 2 days      > 320 µM
4  CCOC(=O)/C(F)=C\[C@H](CCC(N)=O)NC(=O)[C@H](Cc1ccccc1)NC(=O)[C@H](CC(C)C)NC(=O)OCc1ccccc1 [Compound 8]   CC50 at 2 days      > 320 µM
5  CC(C)C[C@H](NC(=O)OCc1ccccc1)C(=O)N[C@@H](Cc1ccccc1)C(=O)N[C@H](/C=C\CCl)CCC(N)=O [Compound 78]   CC50 at 2 days       79.4 µM

// switching to the query compound
Enquiry: State the recorded CC50 at 2 days for this entry: CC(C)CC(NC(=O)OCc1ccccc1)C(=O)NC(Cc1ccccc1)C(=O)NC(C=C1CCCOC1=O)CCC(N)=O (stereo not drawn) [Compound 130]
Return: > 100 µM

====

Biological target: Recombinant Rhinovirus 3C protease (RVP) serotype-14 (Human rhinovirus 14, UniProt P03303)
Construct: Recombinant Rhinovirus 3C proteases from serotypes 14, 16, 2 or 89; made in house
Sequence (P03303 1538-1719): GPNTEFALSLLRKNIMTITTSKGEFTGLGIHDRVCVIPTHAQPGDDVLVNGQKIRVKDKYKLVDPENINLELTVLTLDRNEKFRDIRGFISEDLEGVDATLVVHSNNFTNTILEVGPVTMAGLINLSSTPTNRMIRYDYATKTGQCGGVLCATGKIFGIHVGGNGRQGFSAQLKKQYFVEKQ
Experiment: Inhibition of Rhinovirus Protease (fluorescence resonance energy transfer assay), serotype 14
Assay type: biochemical, human rhinovirus (HRV)
Settings: RVP serotype-14; progress curves in enzyme start experiments
Method: Stock solution (50 mM, in DMSO) of various compounds were prepared; dilutions were in the same solvent. […] RVP activity is measured in the fluorescence resonance energy transfer assay. […] In the uncleaved peptide, the EDANS fluorescence was quenched by the proximal DABCYL moeity. When the peptide was cleaved, the quenching was relieved, and activity was measured as an increase in fluorescence signal. […]
Below, each entry is listed with its recorded kobs/I.

Enquiry: Form: Entry = CCOC(=O)/C=C/[C@H](CCC(N)=O)NC(=O)[C@H](Cc1ccc(OC(C)=O)cc1)NC(=O)[C@H](CC(C)C)NC(=O)OCc1ccccc1 | System = Recombinant Rhinovirus 3C protease (RVP) serotype-14 (Human rhinovirus 14, UniProt P03303) | kobs/I = ____
Return: 1,200 M-1 sec-1

Enquiry: Form: Entry = Cc1ccc(CC(NC(=O)C(NC(=O)SC2CCCC2)C(C)(C)C)C(=O)NC(C=CC(=O)OCc2ccccc2)CCC(N)=O)cc1 (stereo not shown) | System = Recombinant Rhinovirus 3C protease (RVP) serotype-14 (Human rhinovirus 14, UniProt P03303) | kobs/I = ____
Return: 950,000 M-1 sec-1

// provenance: patent US6362166B1
